For each record, write down the corresponding koff.
# TESTED_TARGET: T1, Recombinant human CD4 (R&D Systems, Cat. 10327-CD) (human, UniProt P01730 26-390, limits assumed)
# T1 construct: Bought protein; also called huCD4
# ASSAY_DETAILS: BLI (Octet Red384), purified antibody on anti-mouse Fc sensors, human CD4 100/50/25 nM, global 1:1 fit;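 also: antibodies loaded at 10 µg/mL, curves fitted across association and dissociation phases, with an unrelated mouse-derived antibody serving as internal reference control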
Give bare numbers, in s⁻¹.

Consider the worked cases shown below.
>  <BINDER>
75110_09G15A (antibody, V domains shown, Tested as antibody purified from AlivaMab Mouse Kappa hybridoma (human V regions, kappa light chain, mouse Fc captured by anti-mouse Fc sensors)) VH: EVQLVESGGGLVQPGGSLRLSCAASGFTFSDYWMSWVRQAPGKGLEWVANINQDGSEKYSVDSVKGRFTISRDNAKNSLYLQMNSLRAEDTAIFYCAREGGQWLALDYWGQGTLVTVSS VL: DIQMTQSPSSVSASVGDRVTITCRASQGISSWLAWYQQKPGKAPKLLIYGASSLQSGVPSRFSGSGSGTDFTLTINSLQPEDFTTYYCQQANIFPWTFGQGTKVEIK

>  <RECORDED_METRIC>
koff

>  <UNIT_OF_MEASURE>
s⁻¹

>  <MEASURED_VALUE>
0.004

$$$$
>  <BINDER>
75110_08A13A (antibody, V domains shown, Tested as antibody purified from AlivaMab Mouse Kappa hybridoma (human V regions, kappa light chain, mouse Fc captured by anti-mouse Fc sensors)) VH: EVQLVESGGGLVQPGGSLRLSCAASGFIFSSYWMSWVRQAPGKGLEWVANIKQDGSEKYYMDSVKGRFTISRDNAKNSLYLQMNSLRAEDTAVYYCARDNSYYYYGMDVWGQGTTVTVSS VL: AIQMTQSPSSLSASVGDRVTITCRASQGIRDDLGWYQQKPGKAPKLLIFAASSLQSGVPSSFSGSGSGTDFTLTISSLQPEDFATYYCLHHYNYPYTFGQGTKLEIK

>  <RECORDED_METRIC>
koff

>  <UNIT_OF_MEASURE>
s⁻¹

>  <MEASURED_VALUE>
0.00078

$$$$

Please look at the following binder next.
**Q:** Give the measured koff of 75110_06E14A (antibody, V domains shown, Tested as antibody purified from AlivaMab Mouse Kappa hybridoma (human V regions, kappa light chain, mouse Fc captured by anti-mouse Fc sensors)) VH: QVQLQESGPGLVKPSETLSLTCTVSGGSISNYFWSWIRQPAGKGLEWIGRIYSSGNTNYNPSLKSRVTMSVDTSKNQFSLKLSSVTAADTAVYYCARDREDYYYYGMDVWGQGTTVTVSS VL: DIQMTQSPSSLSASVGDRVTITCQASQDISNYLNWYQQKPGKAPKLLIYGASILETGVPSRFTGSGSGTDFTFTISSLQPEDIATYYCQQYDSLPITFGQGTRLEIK .
**A:** 0.00026
